Reference for the values: patent US20170095565A1

Test: Solubility of tested compounds (Table 1)

{"columns": ["COMPOUND", "Solubility"],
 "data": [
  ["C=CCN1CC[C@]23c4c5ccc(O)c4O[C@H]2[C@@H](OCCOCCOCCOC)CC[C@@]3(O)[C@H]1C5 [α-PEG3-Nal, α-6-CH3—(OCH2CH2)3—O-naloxol]", "soluble"],
  ["C=CCN1CC[C@]23c4c5ccc(O)c4O[C@H]2[C@H](OCCOCCOCCOCCOCCOC)CC[C@@]3(O)[C@H]1C5 [α-PEG5-Nal, α,β-6-CH3—(OCH2CH2)5—O-naloxol]", "soluble"],
  ["COCCOCCOCCOCCOCCNC(=O)\\C=C(C)/C=C/C=C(C)/C=C/C1=C(C)CCCC1(C)C [PEG5-13-cis-RA, CH3—(OCH2CH2)5—NH-13-cis-retinamide]", "soluble"]
]}
